Data provenance is paper PMC8588467.

System: HuTu-80 cells
Assay Method Text: Mitochondrial membrane potential, JC-10 flow cytometry
Assay type: cell-based, human
Protocol Conditions: JC-10; IC50, 48 h
Measured Parameter: % cells with J-aggregate (red, high membrane potential) (%)
Just the number in %, nothing appended.

Guide cases for % cells with J-aggregate (red, high membrane potential), answers given:
Challenge: Please tell me: % cells with J-aggregate (red, high membrane potential) of OC(CBr)C[P+](c1ccccc1)(c1ccccc1)c1ccccc1 (centres unmarked) [3b] , system HuTu-80 cells?
Response given: 48.1

Challenge: And for CCCCCCCCCCCCCCCC(=O)OCC(O)C[P+](c1ccccc1)(c1ccccc1)c1ccccc1 (centres unmarked) [3k] ?
Response given: 26.2

Challenge: And for OC(CCl)C[P+](c1ccccc1)(c1ccccc1)c1ccccc1 (centres unmarked) [3a] ?
Response given: 39.4

Challenge: And for CCCCCCCCCCOCC(O)C[P+](c1ccccc1)(c1ccccc1)c1ccccc1 (centres unmarked) [3j] ?
Response given: 50.1

Now take the following molecule into account.
Challenge: Please tell me: % cells with J-aggregate (red, high membrane potential) of C=CCOCC(O)C[P+](c1ccccc1)(c1ccccc1)c1ccccc1.[I-] (centres unmarked) [4c] , system HuTu-80 cells?
Response given: 51.1

----------
Tested on: WI38 (diploid human embryo lung)
Assay Method Text: MTT cytotoxicity, normal cells WI38
Format: cell-based
Protocol Conditions: Homo sapiens, WI-38, MTT; mean ± SD, triplicate; read-out: WI38 IC50 (normal cell line)
Listing: pIC50 of selected molecules
Please note pIC50 is a logarithmic value: minus log10 of concentration in mol/L. Answer with that number alone.

Guide cases for pIC50, answers given:
Challenge: Given the molecule OC(CCl)C[P+](c1ccccc1)(c1ccccc1)c1ccccc1 (stereo not drawn) [3a] , what is its reported pIC50?
Response given: 4.43

Challenge: And for OC(CBr)C[P+](c1ccccc1)(c1ccccc1)c1ccccc1 (stereo not drawn) [3b] ?
Response given: 4.86

Now take the following molecule into account.
Challenge: Given the molecule OC(CI)C[P+](c1ccccc1)(c1ccccc1)c1ccccc1 (stereo not drawn) [3d] , what is its reported pIC50?
Response given: 4.45

----------
Tested on: T98G glioblastoma cell line
Assay Method Text: MTT cytotoxicity, T98G
Assay type: cell-based, human
Protocol Conditions: MTT; mean ± SD, triplicate
Measured Parameter: pIC50
Please note pIC50 is a logarithmic value: minus log10 of concentration in mol/L. Answer with that number alone.

Challenge: Given the compound CCOCC(O)C[P+](c1ccccc1)(c1ccccc1)c1ccccc1.[I-] (stereo not shown) , what is its reported pIC50?
Response given: 4.30

Challenge: And for C=CCOCC(O)C[P+](c1ccccc1)(c1ccccc1)c1ccccc1 (stereo not shown) ?
Response given: 4.30

Challenge: And for C=CCOCC(O)C[P+](c1ccccc1)(c1ccccc1)c1ccccc1.[I-] (stereo not shown) ?
Response given: 5.70

Challenge: And for COCC(O)C[P+](c1ccccc1)(c1ccccc1)c1ccccc1 (stereo not shown) ?
Response given: 4.22

----------
Tested on: T98G glioblastoma cell line
Assay Method Text: MTT cytotoxicity, T98G
Assay type: cell-based, human
Protocol Conditions: Homo sapiens, T98G, MTT; mean ± SD, triplicate
Could you please mark yes (1) for values of IC50 below 60 µM and no (0) for values at or above it?

Recorded results for 5 compounds are shown here.
Challenge: In the record for CCCCCCCCCCCCCCCCCC(=O)OCC(O)C[P+](c1ccccc1)(c1ccccc1)c1ccccc1 (centres unmarked) [3l] , is IC50 less than 60 µM?
Response given: yes (1)

Challenge: And for OC(CCl)C[P+](c1ccccc1)(c1ccccc1)c1ccccc1 (centres unmarked) [3a] ?
Response given: no (0)

Challenge: And for OC(COCC(F)(F)C(F)F)C[P+](c1ccccc1)(c1ccccc1)c1ccccc1 (centres unmarked) [3h] ?
Response given: no (0)

Challenge: And for OC(CF)C[P+](c1ccccc1)(c1ccccc1)c1ccccc1 (centres unmarked) [3c] ?
Response given: yes (1)

Challenge: And for COCC(O)C[P+](c1ccccc1)(c1ccccc1)c1ccccc1 (centres unmarked) [4a] ?
Response given: yes (1)

Next:
Challenge: In the record for CCOCC(O)C[P+](c1ccccc1)(c1ccccc1)c1ccccc1 (centres unmarked) [3g] , is IC50 less than 60 µM?
Response given: no (0)

Challenge: And for CCCCCCCCCCCCCCCC(=O)OCC(O)C[P+](c1ccccc1)(c1ccccc1)c1ccccc1 (centres unmarked) [3k] ?
Response given: yes (1)

Challenge: And for OC(CBr)C[P+](c1ccccc1)(c1ccccc1)c1ccccc1 (centres unmarked) [3b] ?
Response given: yes (1)

Challenge: And for OC(CI)C[P+](c1ccccc1)(c1ccccc1)c1ccccc1 (centres unmarked) [3d] ?
Response given: no (0)

Challenge: And for COc1cccc2c1C(=O)c1c(O)c3c(c(O)c1C2=O)C[C@@](O)(C(=O)CO)C[C@@H]3O[C@H]1C[C@H](N)[C@H](O)[C@H](C)O1 [Dox, doxorubicin, reference compound] ?
Response given: yes (1)

Challenge: And for CCCCCCCCCCOCC(O)C[P+](c1ccccc1)(c1ccccc1)c1ccccc1 (centres unmarked) [3j] ?
Response given: yes (1)

----------
Tested on: PC3 (human prostate adenocarcinoma)
Assay Method Text: MTT cytotoxicity, PC3
Protocol Conditions: Homo sapiens, read-out: IC50 PC3, MTT; mean ± SD, triplicate
Could you please mark TRUE for values of IC50 below 50 µM and FALSE for values at or above it?

Challenge: In the record for OC(CI)C[P+](c1ccccc1)(c1ccccc1)c1ccccc1 (centres unmarked) [3d] , is IC50 less than 50 µM?
Response given: TRUE

Challenge: And for OC(CCl)C[P+](c1ccccc1)(c1ccccc1)c1ccccc1 (centres unmarked) [3a] ?
Response given: TRUE

Challenge: And for CCCCCCCCCCCCCCCCCC(=O)OCC(O)C[P+](c1ccccc1)(c1ccccc1)c1ccccc1 (centres unmarked) [3l] ?
Response given: FALSE

Challenge: And for CCCCCCCCCCOCC(O)C[P+](c1ccccc1)(c1ccccc1)c1ccccc1 (centres unmarked) [3j] ?
Response given: TRUE

Challenge: And for OC(CBr)C[P+](c1ccccc1)(c1ccccc1)c1ccccc1 (centres unmarked) [3b] ?
Response given: TRUE

Next:
Challenge: In the record for CCCCCCCCCCCCCCCC(=O)OCC(O)C[P+](c1ccccc1)(c1ccccc1)c1ccccc1 (centres unmarked) [3k] , is IC50 less than 50 µM?
Response given: TRUE

Challenge: And for OC(CF)C[P+](c1ccccc1)(c1ccccc1)c1ccccc1 (centres unmarked) [3c] ?
Response given: FALSE

Challenge: And for COc1cccc2c1C(=O)c1c(O)c3c(c(O)c1C2=O)C[C@@](O)(C(=O)CO)C[C@@H]3O[C@H]1C[C@H](N)[C@H](O)[C@H](C)O1 [Dox, doxorubicin, reference compound] ?
Response given: TRUE

----------
Listing: IC50 of selected compounds
Tested on: PC3 (human prostate adenocarcinoma)
Assay Method Text: MTT cytotoxicity, PC3
Protocol Conditions: read-out: IC50 PC3; MTT; mean ± SD, triplicate
Just the number in µM, nothing appended.

Guide cases for IC50, answers given:
Challenge: Given the compound CCOCC(O)C[P+](c1ccccc1)(c1ccccc1)c1ccccc1.[I-] (stereo not shown) [4b] , what is its reported IC50?
Response given: 42.4

Challenge: And for COCC(O)C[P+](c1ccccc1)(c1ccccc1)c1ccccc1 (stereo not shown) [3f] ?
Response given: 55.2

Challenge: And for C=CCOCC(O)C[P+](c1ccccc1)(c1ccccc1)c1ccccc1 (stereo not shown) [3i] ?
Response given: 71.8

Now take the following compound into account.
Challenge: Given the compound C=CCOCC(O)C[P+](c1ccccc1)(c1ccccc1)c1ccccc1.[I-] (stereo not shown) [4c] , what is its reported IC50?
Response given: 0.7

----------
System: A549 (human lung carcinoma)
Assay Method Text: MTT cytotoxicity, A549
Format: cell-based
Protocol Conditions: IC50 normal cells (WI38) / IC50 cancer cells; ns = no selectivity
Measured Parameter: SI A549

Guide cases for SI A549, answers given:
Challenge: Given the compound CCCCCCCCCCCCCCCCCC(=O)OCC(O)C[P+](c1ccccc1)(c1ccccc1)c1ccccc1 (stereo not shown) [3l] , what is its reported SI A549?
Response given: ns

Challenge: And for C=CCOCC(O)C[P+](c1ccccc1)(c1ccccc1)c1ccccc1.[I-] (stereo not shown) [4c] ?
Response given: 1.4

Challenge: And for OC(COCC(F)(F)C(F)F)C[P+](c1ccccc1)(c1ccccc1)c1ccccc1 (stereo not shown) [3h] ?
Response given: ns

Challenge: And for CCOCC(O)C[P+](c1ccccc1)(c1ccccc1)c1ccccc1 (stereo not shown) [3g] ?
Response given: ns

Challenge: And for COCC(O)C[P+](c1ccccc1)(c1ccccc1)c1ccccc1 (stereo not shown) [3f] ?
Response given: ns

Next:
Challenge: Given the compound COc1cccc2c1C(=O)c1c(O)c3c(c(O)c1C2=O)C[C@@](O)(C(=O)CO)C[C@@H]3O[C@H]1C[C@H](N)[C@H](O)[C@H](C)O1 [Dox, doxorubicin, reference compound] , what is its reported SI A549?
Response given: 1.1

Challenge: And for COCC(O)C[P+](c1ccccc1)(c1ccccc1)c1ccccc1 (stereo not shown) [4a] ?
Response given: ns
